System: C. glutamicum (Cg, ATCC 13032)
Assay: microbe, parasite or virus in culture
Assay type: cell-based, Corynebacterium glutamicum
Details: ATCC 13032, 24 h
Where a SMILES comes first, the peptide text is derived from it. Bridges are numbered along the chain shown (N, C = ends). The star is where a group is joined. Lauroyl = CCCCCCCCCCCC(=O)*; Decanoyl = CCCCCCCCCC(=O)*; Octanoyl = CCCCCCCC(=O)*
METRIC: Antimicrobial Activity (MIC) Gram + Cg (µg/mL)
Give bare numbers, in µg/mL.

In the examples that follow, each entry is paired with its recorded Antimicrobial Activity (MIC) Gram + Cg.
molecule="CCCCCCCCCC(=O)N[C@@H](CS)C(=O)NCC(=O)N[C@@H](CCCNC(=N)N)C(=O)N[C@@H](CCCNC(=N)N)C(=O)N[C@@H](Cc1c[nH]c2ccccc12)C(=O)NCC(=O)N[C@@H](Cc1c[nH]c2ccccc12)C(=O)N[C@@H](Cc1c[nH]c2ccccc12)C(=O)N[C@@H](CCCNC(=N)N)C(=O)N[C@@H](CS)C(=O)N[C@@H](CCCNC(=N)N)C(=O)N[C@@H](CC(C)C)C(N)=O [Peptide C10-Turg-6, C10- CGRRWGWWRC RL-NH2] (Decanoyl-CGRRWGWWRCRL-NH2)" metric="Antimicrobial Activity (MIC) Gram + Cg" val=16
molecule="CCCCCCCCCCCC(=O)N[C@H]1CSSC[C@@H](C(=O)N[C@@H](CCCCN)C(=O)N[C@@H](CC(C)C)C(N)=O)NC(=O)[C@H](CCCCN)NC(=O)[C@H](Cc2c[nH]c3ccccc23)NC(=O)CNC(=O)[C@H](Cc2c[nH]c3ccccc23)NC(=O)[C@H](Cc2c[nH]c3ccccc23)NC(=O)[C@H](CCCCN)NC(=O)[C@H](CCCCN)NC(=O)CNC1=O [Peptide C12-cTurg-2, C12- (CGKKWWGWKC)KL-NH2] (Lauroyl-CGKKWWGWKCKL-NH2; disulfide 1-10)" metric="Antimicrobial Activity (MIC) Gram + Cg" val=8
molecule="CCCCCCCC(=O)N[C@H]1CSSC[C@@H](C(=O)N[C@@H](CCCNC(=N)N)C(=O)N[C@@H](CC(C)C)C(N)=O)NC(=O)[C@H](CCCNC(=N)N)NC(=O)[C@H](Cc2c[nH]c3ccccc23)NC(=O)[C@H](Cc2c[nH]c3ccccc23)NC(=O)CNC(=O)[C@H](Cc2c[nH]c3ccccc23)NC(=O)[C@H](CCCNC(=N)N)NC(=O)[C@H](CCCNC(=N)N)NC(=O)CNC1=O [Peptide C8-cTurg-6, C8- (CGRRWGWWRC)RL-NH2] (Octanoyl-CGRRWGWWRCRL-NH2; disulfide 1-10)" metric="Antimicrobial Activity (MIC) Gram + Cg" val=4
molecule="CC(C)C[C@H](NC(=O)[C@H](CCCNC(=N)N)NC(=O)[C@@H]1CSSC[C@H](N)C(=O)NCC(=O)N[C@@H](CCCNC(=N)N)C(=O)N[C@@H](CCCNC(=N)N)C(=O)N[C@@H](Cc2c[nH]c3ccccc23)C(=O)NCC(=O)N[C@@H](Cc2c[nH]c3ccccc23)C(=O)N[C@@H](Cc2c[nH]c3ccccc23)C(=O)N[C@@H](CCCNC(=N)N)C(=O)N1)C(N)=O [cTurg-6] (H-CGRRWGWWRCRL-NH2; disulfide 1-10; N-terminus assumed)" metric="Antimicrobial Activity (MIC) Gram + Cg" val=4
molecule="CC(C)C[C@H](NC(=O)[C@H](CCCNC(=N)N)NC(=O)[C@@H]1CSSC[C@H](N)C(=O)NCC(=O)N[C@@H](CCCNC(=N)N)C(=O)N[C@@H](CCCNC(=N)N)C(=O)N[C@@H](Cc2c[nH]c3ccccc23)C(=O)N[C@@H](Cc2c[nH]c3ccccc23)C(=O)NCC(=O)N[C@@H](Cc2c[nH]c3ccccc23)C(=O)N[C@@H](CCCNC(=N)N)C(=O)N1)C(N)=O [cTurg-5] (H-CGRRWWGWRCRL-NH2; disulfide 1-10; N-terminus assumed)" metric="Antimicrobial Activity (MIC) Gram + Cg" val=4
molecule="CCCCCCCCCC(=O)N[C@H]1CSSC[C@@H](C(=O)N[C@@H](CCCNC(=N)N)C(=O)N[C@@H](CC(C)C)C(N)=O)NC(=O)[C@H](CCCNC(=N)N)NC(=O)[C@H](Cc2c[nH]c3ccccc23)NC(=O)[C@H](Cc2c[nH]c3ccccc23)NC(=O)CNC(=O)[C@H](Cc2c[nH]c3ccccc23)NC(=O)[C@H](CCCNC(=N)N)NC(=O)[C@H](CCCNC(=N)N)NC(=O)CNC1=O [Peptide C10-cTurg-6, C10- (CGRRWGWWRC)RL-NH2] (Decanoyl-CGRRWGWWRCRL-NH2; disulfide 1-10)" metric="Antimicrobial Activity (MIC) Gram + Cg" val=4
molecule="CCCCCCCC(=O)N[C@@H](CS)C(=O)NCC(=O)N[C@@H](CCCCN)C(=O)N[C@@H](CCCCN)C(=O)N1CCC[C@H]1C(=O)NCC(=O)NCC(=O)N[C@@H](Cc1c[nH]c2ccccc12)C(=O)N[C@@H](CCCCN)C(=O)N[C@@H](CS)C(=O)N[C@@H](CCCCN)C(=O)N[C@@H](CC(C)C)C(N)=O [Peptide C8-Turg-1, C8- CGKKPGGWKC KL-NH2] (Octanoyl-CGKKPGGWKCKL-NH2)" metric="Antimicrobial Activity (MIC) Gram + Cg" val=4
molecule="CC(C)C[C@H](NC(=O)[C@H](CCCCN)NC(=O)[C@@H]1CSSC[C@H](N)C(=O)NCC(=O)N[C@@H](CCCCN)C(=O)N[C@@H](CCCCN)C(=O)N[C@@H](Cc2c[nH]c3ccccc23)C(=O)NCC(=O)N[C@@H](Cc2c[nH]c3ccccc23)C(=O)N[C@@H](Cc2c[nH]c3ccccc23)C(=O)N[C@@H](CCCCN)C(=O)N1)C(N)=O [cTurg-3] (H-CGKKWGWWKCKL-NH2; disulfide 1-10; N-terminus assumed)" metric="Antimicrobial Activity (MIC) Gram + Cg" val=4

// below: Antimicrobial Activity (MIC) Gram + Cg requested for another molecule
*Q* Which Antimicrobial Activity (MIC) Gram + Cg reading was recorded for the molecule CCCCCCCCCCCC(=O)N[C@@H](CS)C(=O)NCC(=O)N[C@@H](CCCCN)C(=O)N[C@@H](CCCCN)C(=O)N1CCC[C@H]1C(=O)NCC(=O)NCC(=O)N[C@@H](Cc1c[nH]c2ccccc12)C(=O)N[C@@H](CCCCN)C(=O)N[C@@H](CS)C(=O)N[C@@H](CCCCN)C(=O)N[C@@H](CC(C)C)C(N)=O [Peptide C12-Turg-1, C12- CGKKPGGWKC KL-NH2] (Lauroyl-CGKKPGGWKCKL-NH2) ?
*A* 4
